B1: tRNA (parent)
chain: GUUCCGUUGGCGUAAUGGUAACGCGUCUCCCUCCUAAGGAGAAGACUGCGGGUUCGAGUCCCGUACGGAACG

- Variants of: B1
- assay_procedure: yeast fitness relative to wild type (ratio to wild type); higher = fitter; tRNA-Arg(CCU), competitive growth, 37 C, YPD
Fewer inactive variants are shown than the library holds.
measured_endpoint: yeast fitness
Give bare numbers.

# example entries with known answers
{"mut": "C22U G58C A69G", "yeast fitness": 0.602}
{"mut": "C4A C61U A69C", "yeast fitness": 0.578}

Provide yeast fitness values for the following items, in order.
1. U26A U28A C30G
2. G12C U59C A69C
3. A36U C62A
4. U2G C27G G63A A65C G68C

Reply |
[0.584, 0.665, 0.611, 0.632]

Provide yeast fitness values for the following items, in order.
1. U26C A40G C49U
2. A43G U53C
3. C31U G41C C61U
4. A43U A65G C66U

Reply |
1. 0.502
2. 0.84
3. 0.574
4. 0.794

Provide yeast fitness values for the following items, in order.
1. U3C G48C C55A
2. U53C A70U
3. C24U C27G

Reply |
[0.541, 0.848, 0.602]
